# System: Setaria faberi (SETFA)
# ASSAY_PROTOCOL: Post-emergence glasshouse herbicide test
# Type: in vivo
# CONDITION_LABEL: POST Application, 1000 g/h, after 13 days
RECORDED_METRIC: percentage damage caused to the plant, SETFA

// known answers, use as guide
{"SMILES": "Cc1ccccc1-n1c(=O)c(C(=O)Nc2nnnn2C)nc2ccccc21", "OBSERVED_RESULT": "5 (5=80-100%)"}
{"SMILES": "COc1ccc(-n2c(=O)c(C(=O)Nc3nnnn3C)nc3ccccc32)cc1Cl", "OBSERVED_RESULT": "1 (1=0-19%)"}
{"SMILES": "Cn1nnnc1NC(=O)c1nc2ccccc2n(-c2cccc(Cl)c2)c1=O", "OBSERVED_RESULT": "5 (5=80-100%)"}

Task: What measured percentage damage caused to the plant, SETFA is associated with CCOc1cccc(-n2c(=O)c(C(=O)Nc3nnnn3C)nc3ccccc32)c1 on Setaria faberi (SETFA)?
Output: 5 (5=80-100%)

Task: // query: Cc1cccc(-n2c(=O)c(C(=O)Nc3nnnn3C)nc3ccccc32)c1
Output: 5 (5=80-100%)

Task: What do we get for Cn1nnnc1NC(=O)c1cc2cccnc2n(C)c1=O ?
Output: 1 (1=0-19%)

Task: Next record, please: Cn1nnnc1NC(=O)c1nc2ccccc2n(-c2ccc3ccccc3c2)c1=O
Output: 1 (1=0-19%)

Task: Note, next up: CCn1c(=O)c(C(=O)Nc2nnnn2C)cc2cnccc21
Output: 1 (1=0-19%)

Task: Moving on to the next molecule: COc1ccc(-n2c(=O)c(C(=O)Nc3nnnn3C)nc3ccccc32)cc1F
Output: 4 (4=60-79%)

Task: Same again, this time with Cn1nnnc1NC(=O)c1nc2ccccc2n(-c2cc(Cl)cc(Cl)c2)c1=O
Output: 5 (5=80-100%)

Task: Then this molecule: Cn1nnnc1NC(=O)c1nc2ccccc2n(-c2cccc(C#N)c2)c1=O
Output: 5 (5=80-100%)

Task: Then what about the molecule Cn1nnnc1NC(=O)c1cc2cnc(Cl)cc2n(-c2ccccc2)c1=O ?
Output: 1 (1=0-19%)

Task: Input Cn1nnnc1NC(=O)c1nc2cccnc2n(-c2ccccc2)c1=O
Output: 1 (1=0-19%)

Task: Query Cc1cccc(-n2c(=O)c(C(=O)Nc3nnnn3C)nc3ccccc32)n1 next
Output: 5 (5=80-100%)

Task: Same again, this time with Cn1nnnc1NC(=O)c1cc2cc(F)cnc2n(-c2ccccc2)c1=O
Output: 3 (3=40-59%)

Task: What do we get for Cn1nnnc1NC(=O)c1nc2ccccc2n(-c2ccc(C(F)(F)F)c(Cl)c2)c1=O ?
Output: 2 (2=20-39%)

Task: Ok, now Cn1nnnc1NC(=O)c1nc2ccccc2n(-c2cccc(C(F)(F)F)c2)c1=O
Output: 5 (5=80-100%)

Task: How about this molecule: Cn1nnnc1NC(=O)c1nc2cc(C(F)(F)F)ccc2n(C)c1=O
Output: 2 (2=20-39%)

Task: Would you kindly repeat that for Cn1nnnc1NC(=O)c1nc2ccccc2n(-c2ccc(Cl)c(C(F)(F)F)c2)c1=O ?
Output: 5 (5=80-100%)

Task: Also Cn1nnnc1NC(=O)c1nc2ccccc2n(-c2cccc(F)c2)c1=O , if possible.
Output: 5 (5=80-100%)

Task: Repeat with Cc1ccc(-n2c(=O)c(C(=O)Nc3nnnn3C)nc3ccccc32)cc1
Output: 4 (4=60-79%)

Task: Field entry: Cn1nnnc1NC(=O)c1nc2ccc(Cl)cc2n(-c2ccccc2)c1=O
Output: 5 (5=80-100%)

Task: Do the same for CSc1ccc(-n2c(=O)c(C(=O)Nc3nnnn3C)nc3ccccc32)cc1 please
Output: 2 (2=20-39%)

###

We begin with a simple list: items and their reported percentage damage caused to the plant, SETFA.
# Tested on: Setaria faberi (SETFA)
# ASSAY_PROTOCOL: Post-emergence glasshouse herbicide test
# Type: in vivo
# CONDITION_LABEL: POST Application, 1000 g/h, after 13 days

Solved entries:
{"SMILES": "Cn1nnnc1NC(=O)c1nc2ccccc2n(-c2ccc(I)cc2)c1=O", "TEST_SYSTEM": "Setaria faberi (SETFA)", "OBSERVED_RESULT": "5 (5=80-100%)"}
{"SMILES": "Cn1nnnc1NC(=O)c1nc2ccccc2n(-c2cccc(Br)c2)c1=O", "TEST_SYSTEM": "Setaria faberi (SETFA)", "OBSERVED_RESULT": "5 (5=80-100%)"}
{"SMILES": "Cn1nnnc1NC(=O)c1nc2ccccc2n(-c2ccsc2)c1=O", "TEST_SYSTEM": "Setaria faberi (SETFA)", "OBSERVED_RESULT": "5 (5=80-100%)"}
{"SMILES": "Cn1nnnc1NC(=O)c1nc2cc(Cl)ccc2n(-c2ccccc2)c1=O", "TEST_SYSTEM": "Setaria faberi (SETFA)", "OBSERVED_RESULT": "5 (5=80-100%)"}

Task: Please state recorded percentage damage caused to the plant, SETFA (tested on Setaria faberi (SETFA)) of Cc1cc(-n2c(=O)c(C(=O)Nc3nnnn3C)nc3ccccc32)ccc1Cl
Output: 4 (4=60-79%)

###

# Test system: Setaria faberi (SETFA)
# ASSAY_PROTOCOL: Post-emergence glasshouse herbicide test
# Format: in vivo
# CONDITION_LABEL: POST Application, 1000 g/h, after 13 days
RECORDED_METRIC: percentage damage caused to the plant, SETFA

{"COMPOUND": "Cn1nnnc1NC(=O)c1cc2ccccc2n(-c2ccccc2)c1=O [Compound 7.001]", "OBSERVED_RESULT": "1 (1=0-19%)"}

Task: // lookup percentage damage caused to the plant, SETFA for Cn1nnnc1NC(=O)c1nc2ccccc2n(-c2ccc(Cl)cc2)c1=O [Compound 5.015]
Output: 5 (5=80-100%)

Task: Try this compound next: Cn1nnnc1NC(=O)c1nc2ccccc2n(-c2ccc(OC(F)(F)F)cc2)c1=O [Compound 5.030]
Output: 5 (5=80-100%)

Task: Next record, please: Cn1nnnc1NC(=O)c1nc2ccccc2n(-c2ccc(Br)cc2)c1=O [Compound 5.032]
Output: 5 (5=80-100%)

###

# Test system: Setaria faberi (SETFA)
# ASSAY_PROTOCOL: Post-emergence glasshouse herbicide test
# Type: in vivo
# CONDITION_LABEL: POST Application, 1000 g/h, after 13 days
RECORDED_METRIC: percentage damage caused to the plant, SETFA

Below: 3 compounds and their reported percentage damage caused to the plant, SETFA.
{"SMILES": "Cn1nnnc1NC(=O)c1nc2ccccc2n(-c2ccc(C(F)(F)F)cc2)c1=O", "OBSERVED_RESULT": "5 (5=80-100%)"}
{"SMILES": "Cn1ncnc1NC(=O)c1nc2ccccc2n(-c2ccccc2)c1=O", "OBSERVED_RESULT": "1 (1=0-19%)"}
{"SMILES": "Cn1nnnc1NC(=O)c1nc2ccccc2n(-c2ccccc2)c1=O", "OBSERVED_RESULT": "2 (2=20-39%)"}

Task: Could you tell me which percentage damage caused to the plant, SETFA is on file for Cn1nnnc1NC(=O)c1nc2ccc(C(F)(F)F)cc2n(-c2ccccc2)c1=O ?
Output: 4 (4=60-79%)

###

Parameter: percentage damage caused to the plant, ECHCG. Scope: all listed entries.
# System: Echinochloa crus-galli (ECHCG)
# ASSAY_PROTOCOL: Pre-emergence glasshouse herbicide test
# Type: in vivo
# CONDITION_LABEL: PRE Application, 1000 g/h, after 13 days

Solved cases below.
{"SMILES": "Cn1nnnc1NC(=O)c1cc2ccncc2n(-c2ccccc2)c1=O", "OBSERVED_RESULT": "1 (1=0-19%)"}
{"SMILES": "Cc1cc(-n2c(=O)c(C(=O)Nc3nnnn3C)nc3ccccc32)ccc1Cl", "OBSERVED_RESULT": "3 (3=40-59%)"}
{"SMILES": "COc1ccc(-n2c(=O)c(C(=O)Nc3nnnn3C)nc3ccccc32)cc1Cl", "OBSERVED_RESULT": "3 (3=40-59%)"}

Task: Item Cn1nnnc1NC(=O)c1nc2ccccc2n(-c2cccc(Br)c2)c1=O has what recorded percentage damage caused to the plant, ECHCG?
Output: 5 (5=80-100%)

Task: Proceed to Cn1nnnc1NC(=O)c1cc2cc(F)cnc2n(-c2ccccc2)c1=O
Output: 3 (3=40-59%)

Task: Again, but for Cn1nnnc1NC(=O)c1nc2ccccc2n(-c2ccc(I)cc2)c1=O
Output: 3 (3=40-59%)

###

# System: Echinochloa crus-galli (ECHCG)
# ASSAY_PROTOCOL: Pre-emergence glasshouse herbicide test
# Type: in vivo
# CONDITION_LABEL: PRE Application, 1000 g/h, after 13 days
Measured percentage damage caused to the plant, ECHCG by item

For orientation, consider the following solved cases.
{"SMILES": "Cn1nnnc1NC(=O)c1nc2ccccc2n(-c2ccsc2)c1=O", "OBSERVED_RESULT": "5 (5=80-100%)"}
{"SMILES": "Cc1ccc(-n2c(=O)c(C(=O)Nc3nnnn3C)nc3ccccc32)cc1", "OBSERVED_RESULT": "5 (5=80-100%)"}
{"SMILES": "COc1ccc(-n2c(=O)c(C(=O)Nc3nnnn3C)nc3ccccc32)cc1F", "OBSERVED_RESULT": "5 (5=80-100%)"}
{"SMILES": "Cn1nnnc1NC(=O)c1nc2ccccc2n(-c2ccc(Br)cc2)c1=O", "OBSERVED_RESULT": "4 (4=60-79%)"}
{"SMILES": "Cn1nnnc1NC(=O)c1nc2ccccc2n(-c2cccc([N+](=O)[O-])c2)c1=O", "OBSERVED_RESULT": "3 (3=40-59%)"}

# context switch: different molecule, same percentage damage caused to the plant, ECHCG
Task: GET /values?readout=percentage damage caused to the plant, ECHCG&item= Cn1nnnc1NC(=O)c1nc2ccccc2n(C)c1=O
Output: 5 (5=80-100%)
